assay: NCI Yeast Anticancer Drug Screen. Data for the sgs1 mgt1 strain (AID 161);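 further: 0% = growth of cultures given vehicle only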; conditions: S. cerevisiae sgs1 mgt1 strain, at 50.0 µM (retest, dose inferred, filed as 5.0), stronger effect = higher value
This is part of a sample that, as a whole, favours compounds with a hit. Of some 79,000 tested, about 15% had one in any assay. Active and inactive are the calls of the source. No stated cut-off is given here; in the data, active means growth inhibition above about 70%; inactive means the rest.
quantity kind: growth inhibition

c1ccc(C2NCCNC2c2ccccc2)cc1 (stereo unspecified) : -9% (inactive)
OC(CSc1ccccc1)CN1CCN(c2ccc(Cl)cc2)CC1 (stereo unspecified) : 90% (active)
Nc1cccc2c1-c1ccccc1C2=O : 47% (inactive)
Nc1nc2ncc(CNc3ccc(C(=O)NC(CCC(=O)NC(CCC(=O)NC(CCC(=O)NC(CCC(=O)NC(CCC(=O)O)C(=O)O)C(=O)O)C(=O)O)C(=O)O)C(=O)O)cc3)nc2c(=O)[nH]1 (stereo unspecified) : -12% (inactive)
O=C1C=CC(=O)N1c1cccc2c1CCCC2 : 99% (active)
N#Cc1c2ccccc2nc2ccccc12 : 37% (inactive)
O=C(CBr)c1ccc(OC(=O)c2ccccc2)cc1 : 100% (active)
O=C(/C=C/C(Cl)(Cl)Cl)Nc1ccc(Cl)cc1 : 43% (inactive)
Oc1ccc(Cc2ccc(Cl)cc2)c(O)c1 : 99% (active)
OC(c1cc(-c2ccc(C(F)(F)F)cc2)nc(C(F)(F)F)c1)C1CCCCN1 (stereo unspecified) : 60% (inactive)

Attention now turns to another entry.
Recorded growth inhibition (molecule COC(=O)Nc1nc2ccc(C3(c4ccc(F)cc4)OCCO3)cc2[nH]1 ): 55% (inactive)
